Entries and their MIC80 against C. dubliniensis T-99 values follow.
tested on: C. dubliniensis T-99; experiment: MIC80 broth double-dilution assay; assay type: cell-based; details: YPAD medium, 30° C., 24 h
Respond numerically; units are µg/mL and should not be typed.

{"smiles_representation": "O=C(NC[C@@](O)(Cn1cncn1)c1ccc(F)cc1F)c1cc(-c2ccc(F)cc2F)ccc1O", "reported_property": "MIC80 against C. dubliniensis T-99", "readout_number": 0.5}

Data request, read-out MIC80 against C. dubliniensis T-99, for "C[C@@H](C(=O)NC[C@](O)(Cn1cncn1)c1ccc(F)cc1F)c1cccc(C(=O)c2ccccc2)c1"
4

Data request, read-out MIC80 against C. dubliniensis T-99, for "CC(C)Cc1ccc([C@@H](C)C(=O)NC[C@](O)(Cn2cncn2)c2ccc(F)cc2F)cc1"
0.12

Data request, read-out MIC80 against C. dubliniensis T-99, for "COc1ccc2cc([C@@H](C)C(=O)NC[C@@](O)(Cn3cncn3)c3ccc(F)cc3F)ccc2c1"
8

Data request, read-out MIC80 against C. dubliniensis T-99, for "O=C(NC[C@](O)(Cn1cncn1)c1ccc(F)cc1F)c1cccnc1Nc1cccc(C(F)(F)F)c1"
2

Data request, read-out MIC80 against C. dubliniensis T-99, for "O=C(Cc1ccccc1Nc1c(Cl)cccc1Cl)NC[C@@](O)(Cn1cncn1)c1ccc(F)cc1F"
2

Data request, read-out MIC80 against C. dubliniensis T-99, for "CC(C)Cc1ccc([C@H](C)C(=O)NC[C@@](O)(Cn2cncn2)c2ccc(F)cc2F)cc1"
0.03

Data request, read-out MIC80 against C. dubliniensis T-99, for "O=C(NC[C@@](O)(Cn1cncn1)c1ccc(F)cc1F)c1cccnc1Nc1cccc(C(F)(F)F)c1"
16
